From: ChEMBL document CHEMBL3507680

Form field: cytotoxicity at 70.5 h (one value per entry).
assay: Human HepG2 cell viability assay in 384 well format; format: toxicity, cell-based; parameters: dose 125 nL, time 70.5 hour; concentration not given beside the values; conditions: HepG2 cells, read-out: Inhibition
All answers are understood in %, so give the number only.

Lab note: CCc1nsc(NC2CC(=O)N(C(C)(C)C)C2)n1 (stereo not drawn) gave cytotoxicity at 70.5 h of -8.26

Lab note: "CCN1C(=O)CC[C@]12CC[C@@H](NC(=O)c1ccncc1F)CC2" gave cytotoxicity at 70.5 h of -6.51

Lab note: CCC1=NC2(CCC(C(=O)Nc3ccc(F)cc3)CC2)C(=O)N1C (stereo not drawn) gave cytotoxicity at 70.5 h of -5.04

* * *

Form field: cytotoxicity at 70.5 h (one value per entry).
assay: Human HepG2 cell viability assay in 384 well format; format: toxicity, cell-based; set-up: dose 125 nL, time 70.5 hour; concentration not given beside the values; conditions: HepG2 cells, read-out: Inhibition
All answers are understood in %, so give the number only.

Past entries and their recorded results:
molecule: CN(C)C(=O)N1CCO[C@@H]2CC(COCc3cccnc3)C[C@H]21 (some centres undefined)
cytotoxicity at 70.5 h (%): -1.44

molecule: COc1ccc(C2CCCCCN2S(N)(=O)=O)cc1 (centres undefined)
cytotoxicity at 70.5 h (%): 23.5

molecule: Cc1nc(CN2C(=O)CC[C@@H]3[C@H]2CCN3C(=O)C2CCOCC2)cs1
cytotoxicity at 70.5 h (%): -7.34

molecule: CC(C)N(Cc1ccc(C#N)cc1)C(=O)NCCNc1ncccn1
cytotoxicity at 70.5 h (%): -12.7

molecule: Cc1csc(N2CCN(C(=O)CCC(=O)c3ccc(C)s3)CC2)n1
cytotoxicity at 70.5 h (%): 7.78

molecule: COCCN1C[C@@H]2CN(Cc3ccc(C)s3)CCC[C@]2(C(=O)O)C1
cytotoxicity at 70.5 h (%): 11.4

molecule: Cc1ccnn1C(C)C(=O)Nc1cc(-c2ccncc2)[nH]n1 (centres undefined)
cytotoxicity at 70.5 h (%): -6.01

molecule: O=C(C1=CCCC1)N1C[C@@H]2COC[C@]2(COc2ncccc2F)C1
cytotoxicity at 70.5 h (%): 6.81

molecule: COC(=O)C(c1cc(F)ccc1F)N(C)C(=O)c1cccnc1O (centres undefined)
cytotoxicity at 70.5 h (%): 0.116

molecule: Cc1cnn(CC2CCCN2CC(=O)Nc2cc(C)nn2C)c1 (centres undefined)
cytotoxicity at 70.5 h (%): 9.7

Lab note: COCCOc1ccc(NC(=O)N2CCOC(C(N)=O)C2)cc1F (centres undefined) gave cytotoxicity at 70.5 h of 25.8

Lab note: CN(C)C(c1ccccn1)[C@H]1CC[C@H](CNC(=O)C2CC2)CC1 (some centres undefined) gave cytotoxicity at 70.5 h of 1.46

Lab note: "CN(Cc1cc(=O)c(O)co1)C1CCN(c2ccc(F)cc2)CC1" gave cytotoxicity at 70.5 h of 22.1

Lab note: "Cc1ccc(CNC(=O)Nc2nncs2)cn1" gave cytotoxicity at 70.5 h of -6.07

* * *

Form field: cytotoxicity at 70.5 h (one value per entry).
experiment: Human HepG2 cell viability assay in 384 well format; format: toxicity, cell-based; set-up: dose 125 nL, time 70.5 hour; concentration not given beside the values; details: HepG2 cells, read-out: Inhibition
All answers are understood in %, so give the number only.

Past entries and their recorded results:
molecule: COCC1CN(Cc2c(C)noc2C)Cc2ccnn2C1 (stereo not given)
reported: -9.74

molecule: Cc1nn(C)c2nc(N3CCN(Cc4nccn4C)CC3)sc12
reported: -8.28

Lab note: "Cn1cccc1C(=O)NCc1cnc2n1CCN(C(=O)c1ccoc1)C2" gave cytotoxicity at 70.5 h of -7.47

Lab note: "c1ccc2[nH]c(C3CCN(Cc4noc(C5CC5)n4)CC3)cc2c1" gave cytotoxicity at 70.5 h of -3.83

Lab note: "CCOCCCNC(=O)c1nc2c(s1)CCCN2c1ccc(C)nn1" gave cytotoxicity at 70.5 h of -7.8

Lab note: "O=c1[nH]nc2c(N3CCCCCC3)nccn12" gave cytotoxicity at 70.5 h of -8.09

Lab note: "O=C1C=CC=N/C1=C(/O)NCCNS(=O)(=O)N1CCCCCC1" gave cytotoxicity at 70.5 h of -9.06

Lab note: "COc1cccc2c1OCCCN(Cc1ccc(C(N)=O)c(=O)[nH]1)C2" gave cytotoxicity at 70.5 h of -8.27

Lab note: "Cc1cc2nc(SCC(=O)N3CCCCC3)n(C)c(=O)c2[nH]1" gave cytotoxicity at 70.5 h of 19.2

Lab note: "CCN1C(=O)[C@]2(CC[C@@H]3CN(C(=O)NCC(C)C)C[C@@H]32)N=C1C" gave cytotoxicity at 70.5 h of -2.72

Lab note: "CC(C)c1nc(-c2cc(C(=O)O)c3ccccn23)cs1" gave cytotoxicity at 70.5 h of 10.6

Lab note: "Cc1ncsc1CCN(C)C(=O)c1ncccc1O" gave cytotoxicity at 70.5 h of -7.99

Lab note: "Cc1csc(N2CCCN(C(=O)CCNc3ncccn3)CC2)n1" gave cytotoxicity at 70.5 h of -0.695

Lab note: "Cc1nccn1-c1ccc(=O)n(CCNC(=O)c2ccncc2)n1" gave cytotoxicity at 70.5 h of -7.2

Lab note: "NC(=O)COc1ccc(CNCc2cc(F)ccc2F)cc1" gave cytotoxicity at 70.5 h of 32.7

Lab note: CCn1ncc2c1C(COCC1CC1)CN(C(=O)c1ccncn1)C2 (stereo not given) gave cytotoxicity at 70.5 h of -10.2

Lab note: "Cc1noc(CN(CCc2ccco2)Cc2cccc(C#N)c2)n1" gave cytotoxicity at 70.5 h of 2.9

Lab note: CCCS(=O)(=O)NC(C)C(=O)NCc1ccc(N2CCCC2)nc1 (stereo not given) gave cytotoxicity at 70.5 h of -7.44

Lab note: "Fc1ccc(CN2CCC3(CC2)CN(c2ccccn2)CCO3)cc1" gave cytotoxicity at 70.5 h of 2.69
